test system: Amaranthus palmeri (AMAPA); test: Post-emergence herbicidal glasshouse test; assay type: in vivo; conditions: 250 g/ha, evaluated after 13 days
Attribute: percentage damage caused to the plant (five-point scale), AMAPA
value.type: percentage damage caused to the plant (five-point scale), AMAPA

- CC(C)(C#N)CCCn1nc(C(F)(F)F)cc1Cc1ncc(Cl)cn1 [Compound 1.029]: 3 (41-60%)
- FC(F)(F)CCCn1nc(C(F)(F)F)cc1Cc1ncc(Cl)cn1: 5 (81-100%)
- CC(C)(C#N)CCCn1nc(C(F)(F)F)cc1Cc1ncc(Cl)cn1 [Compound 1.019]: 1 (0-20%)
- FC(F)c1cc(Cc2ncc(Cl)cn2)n(CCBr)n1: 1 (0-20%)
- CCCCn1nc(C(F)F)cc1Cc1ncc(Cl)cc1F: 2 (21-40%)

----------
Attribute: percentage damage caused to the plant (five-point scale), AMARE
tested on: Amaranthus retoflexus (AMARE); experiment: Post-emergence herbicidal glasshouse test; format: in vivo; details: 250 g/ha, evaluated after 13 days
value.type: percentage damage caused to the plant (five-point scale), AMARE

- FC(F)c1cc(Cc2ncc(Cl)cn2)n(CCC2CC2)n1: 1 (0-20%)
- FC(F)c1cc(Cc2ncc(Cl)cn2)n(CCCC(F)(F)F)n1: 2 (21-40%)
- C=CCCn1nc(C(F)F)cc1Cc1ncc(Cl)cn1: 3 (41-60%)
- FC(F)CCn1nc(C(F)F)cc1Cc1ncc(Cl)cn1: 3 (41-60%)
- CCCCn1nc(C(F)F)cc1Cc1ncc(Cl)cc1F: 2 (21-40%)
- FC(F)(F)CCn1nc(C(F)(F)F)cc1Cc1ncc(Cl)cn1: 5 (81-100%)
- FC(F)c1cc(Cc2ncc(Cl)cn2)n(CCC2CCOC2)n1 (stereo not drawn): 1 (0-20%)
- FC(F)c1cc(Cc2ncc(Cl)cn2)n(CCBr)n1: 1 (0-20%)
- N#CC1(Cn2nc(C(F)(F)F)cc2Cc2ncc(Cl)cn2)CC1: 4 (61-80%)

----------
Attribute: percentage damage caused to the plant (five-point scale), SETFA
system: Setaria faberi (SETFA); test: Post-emergence herbicidal glasshouse test; assay type: in vivo; settings: 250 g/ha, evaluated after 13 days
value.type: percentage damage caused to the plant (five-point scale), SETFA

- FC(F)c1cc(Cc2ncc(Cl)cn2)n(CCn2ccc(C(F)(F)F)n2)n1: 1 (0-20%)
- FC(F)(Cl)c1cc(Cc2ncc(Cl)cn2)n(CCC2CC2)n1: 5 (81-100%)
- CS(=O)(=O)CCn1nc(C(F)F)cc1Cc1ncc(Cl)cn1: 1 (0-20%)
- FC(F)c1cc(Cc2ncc(Cl)cn2)n(CCBr)n1: 1 (0-20%)
- FC(F)(F)CCCn1nc(C(F)(F)F)cc1Cc1ncc(Cl)cn1: 4 (61-80%)
- Fc1cc(Cl)cnc1Cc1cc(C(F)(F)F)nn1CCC(F)(F)F: 4 (61-80%)
- FC(F)CCCn1nc(C(F)(F)F)cc1Cc1ncc(Cl)cn1: 4 (61-80%)
- C=CCCn1nc(C(F)F)cc1Cc1ncc(Cl)cn1: 1 (0-20%)
- FC(F)CCn1nc(C(F)(F)Cl)cc1Cc1ncc(Cl)cn1: 4 (61-80%)
- FC(F)(F)c1cc(Cc2ncc(Cl)cn2)n(C2CCCC2)n1: 2 (21-40%)
- N#CC1(Cn2nc(C(F)(F)F)cc2Cc2ncc(Cl)cn2)CC1: 1 (0-20%)
- CC(C)(C#N)CCCn1nc(C(F)(F)F)cc1Cc1ncc(Cl)cn1 [Compound 1.019]: 1 (0-20%)
- CCCCn1nc(C(F)F)cc1Cc1ncc(Cl)cc1F: 1 (0-20%)
- C=Cn1nc(C(F)F)cc1Cc1ncc(Cl)cn1: 2 (21-40%)
- C=CCn1nc(C(F)F)cc1Cc1ncc(Cl)cn1: 1 (0-20%)
- CCSCCn1nc(C(F)F)cc1Cc1ncc(Cl)cn1: 4 (61-80%)
- CC(C)(C#N)CCCn1nc(C(F)(F)F)cc1Cc1ncc(Cl)cn1 [Compound 1.029]: 2 (21-40%)
- N#CC1(Cn2nc(C(F)F)cc2Cc2ccc(Cl)cc2)CC1: 1 (0-20%)
- FC(F)CCn1nc(C(F)F)cc1Cc1ncc(Cl)cn1: 1 (0-20%)
- CCCCn1nc(C(F)(F)Cl)cc1Cc1ncc(Cl)cn1: 1 (0-20%)
